Tested on: Candida albicans drug resistance protein 2 (Cdr2) efflux pump, expressed in S. cerevisiae
ASSAY_INFO: inhibitors of Candida albicans Cdr2 efflux pump, confirmation, S. cerevisiae AD/CaCDR2, flow cytometry, cherry pick 1, singleplex (AID 588520);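 also: higher ratio means more blocking of Cdr2 efflux of the dye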
STUDY_CONDITIONS: at 10 µM, active compounds read high
The campaign covered roughly 1,700 compounds. About 65 (4%) were called active. The list is a sample of the results.
VALUE_TYPE: Nile Red retention ratio vs DMSO (%)

>>> print(df.to_string())
                                    compound                           target_of_assay  numeric_result
 0  Cc1ccc(/C=C(\C#N)C(=O)Nc2cccc3ncccc23)o1  Candida albicans drug resistance protein 2 (Cdr2) efflux pump, expressed in S. cerevisiae              93
 1  Cc1c(CCOC(=O)CC23CC4CC(CC(C)(C4)C2)C3)sc[n+]1Cc1ccc([N+](=O)[O-])cc1  Candida albicans drug resistance protein 2 (Cdr2) efflux pump, expressed in S. cerevisiae             821
 2       C[n+]1ccc(/C=C/c2c[nH]c3ccccc23)cc1  Candida albicans drug resistance protein 2 (Cdr2) efflux pump, expressed in S. cerevisiae             140
 3  COc1ccc(S(=O)(=O)N2CCOC2CNC(=O)C(=O)NCc2ccc(F)cc2)cc1 (stereo unspecified)  Candida albicans drug resistance protein 2 (Cdr2) efflux pump, expressed in S. cerevisiae             114
 4  O=C(CNC(=O)c1ccc(-c2ccccc2)cc1)OCc1ccc(Cl)cc1  Candida albicans drug resistance protein 2 (Cdr2) efflux pump, expressed in S. cerevisiae             120
 5  COc1ccccc1NC(=O)C1CCCN1S(=O)(=O)c1ccc(Cl)cc1 (stereo unspecified)  Candida albicans drug resistance protein 2 (Cdr2) efflux pump, expressed in S. cerevisiae            99.7
 6  CCn1c(/C=C/c2ccc([N+](=O)[O-])o2)nc2ccccc2c1=O  Candida albicans drug resistance protein 2 (Cdr2) efflux pump, expressed in S. cerevisiae             212
 7  O=C(Cc1ccccc1)NCC1OCCc2ccccc21 (stereo unspecified)  Candida albicans drug resistance protein 2 (Cdr2) efflux pump, expressed in S. cerevisiae             117
 8    CCCc1nnc(SCC(=O)Nc2ccc(C(=O)OCC)cc2)o1  Candida albicans drug resistance protein 2 (Cdr2) efflux pump, expressed in S. cerevisiae             133
 9  CCCCCCCCCCCCCCCC(=O)OC/C=C(C)/C=C/C=C(C)/C=C/C1=C(C)CCCC1(C)C  Candida albicans drug resistance protein 2 (Cdr2) efflux pump, expressed in S. cerevisiae             123
10  CC(/C=C/c1ccccc1)=N\NC(=O)C1CC1(C)c1ccccc1 (stereo unspecified)  Candida albicans drug resistance protein 2 (Cdr2) efflux pump, expressed in S. cerevisiae              94

* * *

System: Candida albicans drug resistance protein 2 (Cdr2) efflux pump, expressed in S. cerevisiae
ASSAY_INFO: inhibitors of Candida albicans Cdr2 efflux pump, confirmation, S. cerevisiae AD/CaCDR2, flow cytometry, cherry pick 1, singleplex (AID 588520);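 also: higher ratio means more blocking of Cdr2 efflux of the dye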
STUDY_CONDITIONS: at 10 µM, active compounds read high
Screen size: about 1,700 compounds; about 65 (4%) were called active. The list is a sample of the results.
VALUE_TYPE: Nile Red retention ratio vs DMSO

                                    compound                           target_of_assay            result
 0         CCNC(=O)c1c(O)c2cccc3c2n(c1=O)CC3  Candida albicans drug resistance protein 2 (Cdr2) efflux pump, expressed in S. cerevisiae   107% (inactive)
 1  CC(C)C(=O)N1CCC2(CC1)Oc1ccc(F)cc1C(=O)C21CC(c2ccccc2)=NO1 (stereo unspecified)  Candida albicans drug resistance protein 2 (Cdr2) efflux pump, expressed in S. cerevisiae   102% (inactive)
 2  CCCCCC(=O)Nc1ccc(C(=O)N/N=C/c2ccc([N+](=O)[O-])cc2)cc1  Candida albicans drug resistance protein 2 (Cdr2) efflux pump, expressed in S. cerevisiae   105% (inactive)
 3  COc1ccccc1CSc1ncc(-c2ccc([N+](=O)[O-])cc2)[nH]1  Candida albicans drug resistance protein 2 (Cdr2) efflux pump, expressed in S. cerevisiae  87.5% (inactive)
 4  CCCCOc1ccc(C(=O)NCC(=O)OCC(=O)c2c(N)n(C)c(=O)n(C)c2=O)cc1  Candida albicans drug resistance protein 2 (Cdr2) efflux pump, expressed in S. cerevisiae   103% (inactive)
 5  Cc1ccc2c(c1)NC(=O)[C@@]1(C)[C@@H](c3ccccc3)[C@H]3COc4ccc(Cl)cc4[C@@H]3N1C2=O  Candida albicans drug resistance protein 2 (Cdr2) efflux pump, expressed in S. cerevisiae   102% (inactive)
 6  C/C(N)=C(/C#N)C(=O)COC(=O)c1cc(-c2cccc(Br)c2)nc2ccccc12  Candida albicans drug resistance protein 2 (Cdr2) efflux pump, expressed in S. cerevisiae   110% (inactive)
 7  Cc1nn(C)cc1N1C(=O)c2cccc3c(N)ccc(c23)C1=O  Candida albicans drug resistance protein 2 (Cdr2) efflux pump, expressed in S. cerevisiae   106% (inactive)
 8  Cc1nc2c(C(=O)NCc3ccc4c(c3)OCO4)c[nH]n2c(=O)c1Cc1ccccc1F  Candida albicans drug resistance protein 2 (Cdr2) efflux pump, expressed in S. cerevisiae   108% (inactive)
 9     O=C(OCc1ccc(-c2ccccc2)cc1)c1cccc(O)c1  Candida albicans drug resistance protein 2 (Cdr2) efflux pump, expressed in S. cerevisiae   108% (inactive)
10  CC1CCc2c(sc(NC(=O)c3ccc(Cn4cc(Br)cn4)o3)c2C(N)=O)C1 (stereo unspecified)  Candida albicans drug resistance protein 2 (Cdr2) efflux pump, expressed in S. cerevisiae   108% (inactive)
11  COc1ccc(-c2sc3ccccc3c2-c2ccc(OCCN3CCOCC3)cc2)cc1  Candida albicans drug resistance protein 2 (Cdr2) efflux pump, expressed in S. cerevisiae   101% (inactive)
12                 Cc1oc2cc3oc(=O)ccc3cc2c1C  Candida albicans drug resistance protein 2 (Cdr2) efflux pump, expressed in S. cerevisiae   107% (inactive)
13  Cc1ccc2[nH]c3c(=O)n(CC(=O)NCCc4ccc(Cl)cc4)ncc3c2c1  Candida albicans drug resistance protein 2 (Cdr2) efflux pump, expressed in S. cerevisiae   137% (inactive)
14               Cc1nn(C)cc1C(=O)Nc1ccccc1Br  Candida albicans drug resistance protein 2 (Cdr2) efflux pump, expressed in S. cerevisiae   104% (inactive)
15  CC12CCC(C(=O)N(c3cccc(Cl)c3)C1=O)C2(C)C (stereo unspecified)  Candida albicans drug resistance protein 2 (Cdr2) efflux pump, expressed in S. cerevisiae   110% (inactive)
16  Cc1csc(NC(=O)c2ccc(-c3ccc(Cl)cc3Cl)o2)n1  Candida albicans drug resistance protein 2 (Cdr2) efflux pump, expressed in S. cerevisiae   104% (inactive)
17      O=C(Cc1ccc(Br)cc1)N1CCN(c2ccccn2)CC1  Candida albicans drug resistance protein 2 (Cdr2) efflux pump, expressed in S. cerevisiae  85.2% (inactive)
18  COc1cccc(NC(=O)CN(C)C(=O)/C=C/c2cc(OC)ccc2OC)c1  Candida albicans drug resistance protein 2 (Cdr2) efflux pump, expressed in S. cerevisiae  97.5% (inactive)
19  CC(/C=N/NC(=O)c1cc(-c2ccc3ccccc3c2)n[nH]1)=C\c1ccco1  Candida albicans drug resistance protein 2 (Cdr2) efflux pump, expressed in S. cerevisiae  95.4% (inactive)
20  C=CCC[C@@H](Cc1ccc(F)cc1)C(=O)OC[C@H](Cc1c[nH]c2ccccc12)NC(=O)[C@@H](CC=C)CC(=O)N(CCO)Cc1ccccc1  Candida albicans drug resistance protein 2 (Cdr2) efflux pump, expressed in S. cerevisiae   123% (inactive)

* * *

Recorded measurements of Nile Red retention ratio vs DMSO, one per entry
System: Candida albicans drug resistance protein 2 (Cdr2) efflux pump, expressed in S. cerevisiae
ASSAY_INFO: inhibitors of Candida albicans Cdr2 efflux pump, confirmation, S. cerevisiae AD/CaCDR2, flow cytometry, cherry pick 1, singleplex (AID 588520);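 also: higher ratio means more blocking of Cdr2 efflux of the dye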
STUDY_CONDITIONS: at 10 µM, active compounds read high
In all, about 1,700 compounds went through this assay and about 65 (4%) were called active. Only a sample is shown.
VALUE_TYPE: Nile Red retention ratio vs DMSO (%)

                               sample_smiles  unit  numeric_result
 0  Cc1ccc(Cn2c(C)nc3c(c2=O)c2nc4ccccc4nc2n3Cc2ccco2)cc1     %             104
 1  CCCc1nc(N2CCN(C)CC2)c2sc(=S)n(-c3ccccc3)c2n1     %            99.6
 2  O=C(CSc1nnc(-c2cccnc2)n1Cc1ccco1)c1ccc(Cl)c(Cl)c1     %             107
 3      CC[n+]1cc(C)ccc1/C=C/c1ccc(N(C)C)cc1     %             118
 4  O=C(CCCCCn1c(=O)[nH]c2ccccc2c1=O)NCCc1c[nH]c2ccccc12     %            96.3
 5  CCOC(=O)c1c(NC(=S)NC(=O)c2ccco2)sc2c1CCCC2     %            95.4
 6  Cc1cc(/C=N/NC(=O)CC2(C)OCCO2)c(C)n1-c1ccc(Cl)c(Cl)c1     %             101
 7  Cc1ccc(N=C2NC(=O)/C(=C/C=C/c3ccco3)S2)cc1C     %             114
 8    COc1ccc(/C=C(\C#N)c2c[nH]c3ccccc23)cc1     %            98.5
 9                NNC(=O)COc1ccc(C2SCCS2)cc1     %            98.5
10  CN(C)S(=O)(=O)c1cc(C(=O)Nc2ccn(C)n2)c(Cl)cc1Cl     %            99.3
